Hello, the source for this data is paper PMC8464809, in case you need it.

Assay: Cytotoxicity in resting peripheral blood lymphocytes (MTT)
Type: cell-based
Details: human, PBL not stimulated with PHA, healthy donors, read-out: GI50 PBLresting
measure: GI50 at 72 h (µM)

>>> readout_number("CN(C)c1cc[n+](Cc2ccc(-c3ccc(CNc4cccc(O)c4)cc3)cc2)cc1")
7.6

====

Test: Cytotoxicity in PHA-stimulated peripheral blood lymphocytes (MTT)
Format: cell-based
Settings: human, PBL stimulated with PHA, healthy donors, read-out: GI50 PBLPHA
measure: GI50 at 72 h (µM)

>>> readout_number("CN(C)c1cc[n+](Cc2ccc(-c3ccc(CNc4cccc(O)c4)cc3)cc2)cc1")
3.6
